Test system: Aedes aegypti
Experiment: Warm Body assay, mosquito landings on treated warm body
Format: in vivo
Conditions: Aedes aegypti, 0.598 mg/mL (Table 1); read-out: Percentage of repellence of mosquitoes Aedes aegypti landing on the warm body

{"columns": ["molecule", "pest or weed control at 598 µg/mL (%)"],
 "data": [
  ["CC=Cc1cc(OC)c(OC)c(OC)c1", 95],
  ["CCCc1cc(OC)c(OC)c(OC)c1", 99],
  ["COc1cc(C=NCCN=Cc2cc(OC)c(OC)c(OC)c2)cc(OC)c1OC", 88],
  ["C=CCc1cc(OC)c(O)c(OC)c1", 98],
  ["CCCc1cc(OC)c(O)c(OC)c1", 94],
  ["CC=Cc1cc(OC)c(O)c(OC)c1 [compound 1124, 2,6-dimethoxy-4-[prop-1-enyl]phenol]", 69]
]}

###

System: Aedes aegypti
Assay: Warm Body assay, mosquito landings on treated warm body
Type: in vivo
Details: Aedes aegypti, 0.89 mg/mL (Table 2); read-out: Percentage of repellence of mosquitoes Aedes aegypti landing on the warm body
metric: pest or weed control at 890 µg/mL (%)

{"columns": ["structure", "result unit", "readout value"],
 "data": [
  ["COc1ccc(OC)c(OC)c1", "%", 95],
  ["CC=Cc1cc(OC)c(O)c(OC)c1", "%", 59],
  ["COc1cc(C)cc(OC)c1O", "%", 84],
  ["COc1cc(C=CC(=O)O)cc(OC)c1OC", "%", 69]
]}

###

The entries below are paired with their reported pest or weed control at 80 µg/mL.
Tested on: Aedes aegypti
Test: Warm Body assay, mosquito landings on treated warm body
Format: in vivo
Details: Aedes aegypti, 0.08 mg/mL (Table 1); read-out: Percentage of repellence of mosquitoes Aedes aegypti landing on the warm body
metric: pest or weed control at 80 µg/mL (%)

{"columns": ["molecule", "metric", "result unit", "readout value"],
 "data": [
  ["CCCc1cc(OC)c(OC)c(OC)c1 [compound 1975, 1,2,3-trimethoxy-5-propylbenzene]", "pest or weed control at 80 µg/mL", "%", 93],
  ["CC=Cc1cc(OC)c(OC)c(OC)c1 [compound 1123]", "pest or weed control at 80 µg/mL", "%", 67],
  ["COc1cc(C=NCCN=Cc2cc(OC)c(OC)c(OC)c2)cc(OC)c1OC [compound 1980]", "pest or weed control at 80 µg/mL", "%", 92],
  ["CCCc1cc(OC)c(O)c(OC)c1 [compound 1502, 2,6-dimethoxy-4-propylphenol]", "pest or weed control at 80 µg/mL", "%", 0],
  ["C=CCc1cc(OC)c(O)c(OC)c1 [compound 1191, 4-allyl-2,6-dimethoxyphenol]", "pest or weed control at 80 µg/mL", "%", 62],
  ["CC=Cc1cc(OC)c(O)c(OC)c1 [compound 1124, 2,6-dimethoxy-4-[prop-1-enyl]phenol]", "pest or weed control at 80 µg/mL", "%", 84],
  ["COC(=O)Oc1ccc(C)cc1OC [compound 1141]", "pest or weed control at 80 µg/mL", "%", 39]
]}

###

Test system: Aedes aegypti
Assay: Warm Body assay, mosquito landings on treated warm body
Type: in vivo
Conditions: Aedes aegypti, 0.08 mg/mL (Table 2); read-out: Percentage of repellence of mosquitoes Aedes aegypti landing on the warm body
The entries below are paired with their reported pest or weed control at 80 µg/mL.
metric: pest or weed control at 80 µg/mL (%)

{"columns": ["compound", "metric", "readout value"],
 "data": [
  ["COc1ccc(OC)c(OC)c1 [compound 1201, 1,2,4-trimethoxybenzene]", "pest or weed control at 80 µg/mL", 72],
  ["CC=Cc1cc(OC)c(O)c(OC)c1 [compound 1127, 2,6-dimethoxy-4-prop-1-enylphenol]", "pest or weed control at 80 µg/mL", 0],
  ["COc1cc(C=CC(=O)O)cc(OC)c1OC [compound 1566]", "pest or weed control at 80 µg/mL", 0],
  ["COc1cc(C)cc(OC)c1O [compound 1537, 2,6-dimethoxy-4-methylphenol]", "pest or weed control at 80 µg/mL", 40]
]}
